Where these numbers come from: paper PMC9927813

Target: SARS-CoV-2 nucleocapsid (N) protein, wild type (SARS-CoV-2 (wild type), UniProt P0DTC9 1-419)
Assay: BLI; N protein on Ni-NTA sensor; BLI ([…], DPBS + 0.5 mM MgCl2 + 1 mM CaCl2, pH 7.4; […] (PBST)
Details: protein: commercial; tags: His; chain copies: 2
Hi there, I'd appreciate the recorded pKd for every entry that follows.
Give bare numbers, as −log10 of the molar value.

Sample records with pKd:
- BINDER: "tNSP2 (ssDNA) DNA: CTGACTGTAACCACGTATTGCGTTCCAGTCCCTATGACCAACGTCACAATAAGTCGCATAGGTA"
  pKd: 8.52
- BINDER: "TAACCACGGCGCAAGCCGGGGTGTACGTGTTATACGTGCGTGTATCGAG (ssDNA) [tNSP1]"
  pKd: 8.34

Here is another binder to look at.
Value lookup for pKd; key = CAGCGTCACGTGTTGTTCCCCATTGTACTGATTCGTCGTGGCAT (ssDNA) [tNSP3]
8.24
